assay_summary: Wheal area per 10 μg of analog
Assay type: in vivo
study_conditions: Table III / Example 1
Starred links: 1 amine or outer side, 2 acyl side, 3 side chain; linkers in the order of their positions; H or OH if unused. Non-standard residues stand in square brackets, D forms with d. Residues, ends and D or L forms follow the SMILES beside them. *: point of attachment. dAla(cis-4-NHCOPyz-cHex) = N[C@H](C[C@H]1CC[C@@H](NC(=O)c2cnccn2)CC1)C(=O)O; X1 = O=C([C@@H](Cc1cnc2ccccc2c1)N[*:1])[*:2]; Ala(2-pyrazinyl) = N[C@@H](Cc1cnccn1)C(=O)O; dPhe(4-Cl) = N[C@H](Cc1ccc(Cl)cc1)C(=O)O; d2Nal = N[C@H](Cc1ccc2ccccc2c1)C(=O)O; Lys(iPr) = CC(C)NCCCC[C@H](N)C(=O)O; d3Pal = N[C@H](Cc1cccnc1)C(=O)O; Picolinoyl = O=C(c1ccccn1)*; Abu = CC[C@H](N)C(=O)O
readout_name: Wheal area

Study these solved cases before continuing.
CC(=O)N[C@H](Cc1ccc2ccccc2c1)C(=O)N[C@H](Cc1ccc(Cl)cc1)C(=O)N[C@H](Cc1cccnc1)C(=O)N[C@@H](CO)C(=O)N[C@@H](CCCCNC(=O)c1ccccn1)C(=O)NC1CCN(C(CC(C)C)C(=O)N[C@@H](CCCCNC(C)C)C(=O)N2CCC[C@H]2C(=O)N[C@H](C)C(N)=O)C1=O (stereo partly shown) | 99.5 ± 4.5 mm^2 /10 μg
CC(=O)N[C@H](Cc1cnc2ccccc2c1)C(=O)N[C@H](Cc1ccc(Cl)cc1)C(=O)N[C@H](Cc1cccnc1)C(=O)N[C@@H](CO)C(=O)N[C@@H](CCCCNC(=O)c1ccccn1)C(=O)NC1CCN(C(CC(C)C)C(=O)N[C@@H](CCCCNC(C)C)C(=O)N2CCC[C@H]2C(=O)N[C@H](C)C(N)=O)C1=O (stereo partly shown) | 89.5 ± 5.5 mm^2 /10 μg
CC[C@H](NC(=O)[C@@H](CCCCNC(=O)c1ccccn1)NC(=O)[C@H](CCCCNC(=O)c1ccccn1)NC(=O)[C@H](CO)NC(=O)[C@@H](Cc1cccnc1)NC(=O)[C@@H](Cc1ccc(Cl)cc1)NC(=O)[C@@H](Cc1cnc2ccccc2c1)NC(C)=O)C(=O)N[C@@H](CCCCNC(C)C)C(=O)N1CCC[C@H]1C(=O)N[C@H](C)C(N)=O [compound 20] (Ac-[X1][dPhe(4-Cl)][d3Pal]SK(Picolinoyl)[dK](Picolinoyl)[Abu][Lys(iPr)]P[dA]-NH2) | 103.9 ± 3.7 mm^2 /10 μg

Reported Wheal area for CC(=O)N[C@H](Cc1ccc2ccccc2c1)C(=O)N[C@H](Cc1ccc(Cl)cc1)C(=O)N[C@H](Cc1cccnc1)C(=O)N[C@@H](CO)C(=O)N[C@@H](Cc1cnccn1)C(=O)N[C@H](C[C@H]1CC[C@@H](NC(=O)c2cnccn2)CC1)C(=O)N[C@@H](CC(C)C)C(=O)N[C@@H](CCCCNC(C)C)C(=O)N1CCC[C@H]1C(=O)N[C@H](C)C(N)=O [compound 18] (Ac-[d2Nal][dPhe(4-Cl)][d3Pal]S[Ala(2-pyrazinyl)][dAla(cis-4-NHCOPyz-cHex)]L[Lys(iPr)]P[dA]-NH2) was 101.6 ± 2.2 mm^2 /10 μg
